Test: MTT cytotoxicity assay
Assay type: cell-based
Conditions: human, HeLa cells
Where no end group is shown, it is not given here.
Entries and their IC50 at 1 h values follow.
Output spec: scalar in µM, unitless text.

| substance | IC50 at 1 h [µM] |
| --- | --- |
| ILILAAKLLKLLKKELKLLK-NH2 [LP2] | 1.3 |

Looking up ILILAAKLLKALKKEAKLLK-NH2 [LP3] , I found its IC50 at 1 h recorded as 12.5

IC50 at 1 h measured on ILILILAAKLAKALKKEAKALK-NH2 [LP5] = 13

FYI, the data here is from paper PMC8639468.
